Field: Ki. System: Thymidylate synthase (Escherichia coli, UniProt C3SWJ7). Provenance: assorted publications.
Sequence (C3SWJ7 whole entry): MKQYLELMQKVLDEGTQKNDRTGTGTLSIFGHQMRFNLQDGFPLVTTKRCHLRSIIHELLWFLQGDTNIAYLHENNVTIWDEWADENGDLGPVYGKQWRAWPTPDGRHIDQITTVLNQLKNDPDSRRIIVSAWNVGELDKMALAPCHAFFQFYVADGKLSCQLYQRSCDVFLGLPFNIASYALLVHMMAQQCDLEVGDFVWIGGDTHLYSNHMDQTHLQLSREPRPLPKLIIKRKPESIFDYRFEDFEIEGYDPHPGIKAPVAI
RESULT_TYPE: Ki (nM)

Consider the following illustrative entries.
COc1ccc(Nc2nc3cc([N+](=O)[O-])cc([N+](=O)[O-])c3nc2-c2ccccc2)cc1OC
1000
O=C1OC(c2ccc(O)c(F)c2)(c2ccc(O)c(F)c2)c2ccc(Cl)c3cccc1c23
1100
O=S(=O)(c1ccc(CN2CCCc3cc4[nH]cnc4cc32)cc1)N1CCNCC1
4900
CN(C)c1cccc2c(S(=O)(=O)Oc3ccc(C[C@H](NS(=O)(=O)c4cccc5cc([N+](=O)[O-])ccc45)C(=O)O)cc3)cccc12
300
Nc1nc2cc3c(cc2[nH]1)N(Cc1ccc(S(=O)(=O)c2ccccc2)cc1)CCC3
43

P. CN(Cc1ccc(S(=O)(=O)N2CCOCC2)cc1)c1ccc2c3c(cccc13)C(N)=N2
Q. CN(C)c1cccc2c(S(=O)(=O)Oc3ccc(C[C@H](NS(=O)(=O)c4cccc5cc(N)ccc45)C(=O)O)cc3)cccc12
(Q) Given the two records P and Q , choose the one whose Ki value is lower. Your answer should be the label attached to the chosen record.
(A) Q

* * *

Field: Ki. System: Thymidylate synthase (Escherichia coli, UniProt C3SWJ7). Provenance: assorted publications.
RESULT_TYPE: Ki (nM)

Consider the following illustrative entries.
O=C1OC(c2ccc(O)c(Br)c2)(c2ccc(O)c(Br)c2)c2cccc3cccc1c23
900
COc1ccc(S(=O)(=O)c2ccc(CN3CCCc4cc5c(cc43)nc(C)n5C)cc2)cc1
5200

a. Cc1ccc2c3c(ccc(N(C)Cc4ccncc4)c13)N=C2N
b. CN(Cc1ccnnc1)c1ccc2c3c(cccc13)C(N)=N2
c. O=C1OC(c2ccc(O)c(Br)c2)(c2ccc(O)c(Br)c2)c2c1ccc1ccccc21
d. Cc1cc(CN(C)c2ccc3c4c(cccc24)C(N)=N3)ccn1
e. C#CCN(Cc1ccc2nc(C)nc(O)c2c1)c1ccc(C(=O)NC(CCC(=O)O)C(=O)O)cc1 (configuration not stated)
(Q) Rank entries according to their Ki, from the largest number down. Write the labels, ordered according to the request.
(A) b, d, c, a, e
(b: 18000 nM, d: 1800 nM, c: 900 nM, a: 600 nM, e: 4.8 nM)
